System: HCC-15
Experiment: relative viability (nuclei count vs DMSO), 5 days (fraction); higher = more cells survive
Details: first compound 0.05 µM
Endpoint label: relative viability
Please reply with the value in numeric form only.

IN: # get_value(readout='relative viability', item= CC1(C)CCC(c2ccc(Cl)cc2)=C(CN2CCN(c3ccc(C(=O)NS(=O)(=O)c4ccc(N[C@H](CCN5CCOCC5)CSc5ccccc5)c(S(=O)(=O)C(F)(F)F)c4)cc3)CC2)C1 [Navitoclax] + N=C(N)NC(=N)NCCc1ccccc1 [Phenformin] (partner 250 µM) )
OUT: 0.406

IN: Dear colleague, I am looking for the recorded relative viability of the following compound: CC1(C)CCC(c2ccc(Cl)cc2)=C(CN2CCN(c3ccc(C(=O)NS(=O)(=O)c4ccc(N[C@H](CCN5CCOCC5)CSc5ccccc5)c(S(=O)(=O)C(F)(F)F)c4)cc3)CC2)C1 [Navitoclax] + O=C(c1cc(Cc2n[nH]c(=O)c3ccccc23)ccc1F)N1CCN(C(=O)C2CC2)CC1 [Olaparib] (partner 8 µM)
OUT: 0.626

IN: May I ask what relative viability has been recorded for CC1(C)CCC(c2ccc(Cl)cc2)=C(CN2CCN(c3ccc(C(=O)NS(=O)(=O)c4ccc(N[C@H](CCN5CCOCC5)CSc5ccccc5)c(S(=O)(=O)C(F)(F)F)c4)cc3)CC2)C1 [Navitoclax] + Cc1nc(Nc2ncc(C(=O)Nc3c(C)cccc3Cl)s2)cc(N2CCN(CCO)CC2)n1 [Dasatinib] (partner 0.075 µM) ?
OUT: 0.577

IN: Item CC1(C)CCC(c2ccc(Cl)cc2)=C(CN2CCN(c3ccc(C(=O)NS(=O)(=O)c4ccc(N[C@H](CCN5CCOCC5)CSc5ccccc5)c(S(=O)(=O)C(F)(F)F)c4)cc3)CC2)C1 [Navitoclax] + COc1cc2c(Oc3ccc(NC(=O)C4(C(=O)Nc5ccc(F)cc5)CC4)cc3F)ccnc2cc1OCCCN1CCOCC1 [Foretinib] (partner 0.25 µM) has what recorded relative viability?
OUT: 0.977

Data origin, for the record: the supplement of paper PMC10307832
